# Tested on: K24384-001-R-PDC complex spheroids, viability;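 further: spheroids exposed to compounds for seven days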
# testProtocol: Anticancer human tumor K24384-001-R-PDC patient-derived pancreatic adenocarcinoma cell line growth inhibition [GQUAD]
# conditionNotes: second compound 3.16 µM; first compound 0.0316 µM; stronger effect = lower value
valueKind: viability, T/C (%)

1. CC(C)n1c(=O)n(C)c2cnc3cc(F)c(-c4ccc(OCCCN5CCCCC5)nc4)cc3c21 + Cc1cnc(CNC(=O)c2c(=O)c3ccc(N4CCCN(C)CC4)nc3n3c2sc2ccccc23)cn1 | 44.4
2. Cn1ncnc1[C@H]1c2n[nH]c(=O)c3cc(F)cc(c23)N[C@@H]1c1ccc(F)cc1 + CN(C)c1ccc(Nc2c3ccc(NC(=O)CCN4CCCC4)cc3nc3cc(NC(=O)CCN4CCCC4)ccc23)cc1 | 92.3
3. COc1ccc([C@@H](O)c2cc(-c3ncnc4cc(N5CCOCC5)ccc34)c(F)cc2Cl)nn1 + Cc1[nH]c2ccc(F)cc2c1-c1nc2c3cccnc3c3ncccc3c2[nH]1 | 87.9
4. Cc1[nH]c2ccccc2c1CCNCc1ccc(/C=C/C(=O)NO)cc1 + Cc1cnc(CNC(=O)c2c(=O)c3ccc(N4CCCN(C)CC4)nc3n3c2sc2ccccc23)cn1 | 34.6
5. COc1cccc2c1C(=O)c1c(O)c3c(c(O)c1C2=O)CC(O)(C(=O)CO)CC3OC1CC(N)C(O)C(C)O1 (stereo unspecified) + Cc1cnc(CNC(=O)c2c(=O)c3ccc(N4CCCN(C)CC4)nc3n3c2sc2ccccc23)cn1 | 40
6. O=c1[nH]cc(F)c(=O)[nH]1 + Cc1cnc(CNC(=O)c2c(=O)c3ccc(N4CCCN(C)CC4)nc3n3c2sc2ccccc23)cn1 | 33.3
